Data provenance: ChEMBL document CHEMBL5291721

Tested on: Vasopressin V1a receptor (Homo sapiens, UniProt P37288); note: assay procedure not described here
Sequence (P37288 whole entry): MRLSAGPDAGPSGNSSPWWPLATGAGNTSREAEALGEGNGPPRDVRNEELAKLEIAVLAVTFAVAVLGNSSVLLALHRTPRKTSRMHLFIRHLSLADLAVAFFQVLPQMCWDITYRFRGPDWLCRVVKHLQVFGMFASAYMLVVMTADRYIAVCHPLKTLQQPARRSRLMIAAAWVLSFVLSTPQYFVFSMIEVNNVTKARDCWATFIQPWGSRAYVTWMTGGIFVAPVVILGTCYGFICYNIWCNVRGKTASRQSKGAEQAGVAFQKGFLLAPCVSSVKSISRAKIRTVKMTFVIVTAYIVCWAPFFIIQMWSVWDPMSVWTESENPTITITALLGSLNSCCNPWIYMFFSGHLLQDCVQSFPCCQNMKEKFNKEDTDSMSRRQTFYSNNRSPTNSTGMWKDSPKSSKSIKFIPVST

>  <Compound>
C=CC(N)CCC(=O)O (centres undefined) [VIGABATRIN]

>  <Tested on>
Vasopressin V1a receptor (Homo sapiens, UniProt P37288); note: assay procedure not described here

>  <AC50>
> 10 µM

$$$$
>  <Compound>
CC(C)OC(=O)C(C(=O)OC(C)C)=C1SC=CS1 [MALOTILATE]

>  <Tested on>
Vasopressin V1a receptor (Homo sapiens, UniProt P37288); note: assay procedure not described here

>  <AC50>
> 30 µM

$$$$
>  <Compound>
NS(=O)(=O)c1cc(C(=O)O)cc(N2CCCC2)c1Oc1ccccc1 [PIRETANIDE]

>  <Tested on>
Vasopressin V1a receptor (Homo sapiens, UniProt P37288); note: assay procedure not described here

>  <AC50>
> 30 µM

$$$$
>  <Compound>
O=C(O)c1ccccc1Nc1cccc(C(F)(F)F)c1 [FLUFENAMIC ACID]

>  <Tested on>
Vasopressin V1a receptor (Homo sapiens, UniProt P37288); note: assay procedure not described here

>  <AC50>
> 30 µM

$$$$
>  <Compound>
CNCCC=C1c2ccccc2CCc2ccccc21 [NORTRIPTYLINE]

>  <Tested on>
Vasopressin V1a receptor (Homo sapiens, UniProt P37288); note: assay procedure not described here

>  <AC50>
> 30 µM

$$$$
>  <Compound>
O=C1Nc2ccc(Cl)cc2C(c2ccccc2)=NC1O (centres undefined) [OXAZEPAM]

>  <Tested on>
Vasopressin V1a receptor (Homo sapiens, UniProt P37288); note: assay procedure not described here

>  <AC50>
> 10 µM

$$$$
>  <Compound>
CN1C[C@H](C(=O)N[C@]2(C)O[C@@]3(O)[C@@H]4CCCN4C(=O)[C@H](Cc4ccccc4)N3C2=O)C[C@@H]2c3cccc4[nH]cc(c34)C[C@H]21 [DIHYDROERGOTAMINE]

>  <Tested on>
Vasopressin V1a receptor (Homo sapiens, UniProt P37288); note: assay procedure not described here

>  <AC50>
> 30 µM

$$$$
>  <Compound>
Cc1cc2nc3c(=O)[nH]c(=O)nc-3n(C[C@H](O)[C@H](O)[C@H](O)COP(=O)(O)O)c2cc1C [RIBOFLAVIN 5'-PHOSPHATE]

>  <Tested on>
Vasopressin V1a receptor (Homo sapiens, UniProt P37288); note: assay procedure not described here

>  <AC50>
> 30 µM

$$$$
>  <Compound>
Clc1ccc2c(c1)C(c1ccccc1)=NCc1nncn1-2 [ESTAZOLAM]

>  <Tested on>
Vasopressin V1a receptor (Homo sapiens, UniProt P37288); note: assay procedure not described here

>  <AC50>
> 30 µM

$$$$

* * *

Tested on: Voltage-gated inwardly rectifying potassium channel KCNH2 (Homo sapiens, UniProt Q12809); note: assay procedure not described here
Sequence (Q12809 whole entry): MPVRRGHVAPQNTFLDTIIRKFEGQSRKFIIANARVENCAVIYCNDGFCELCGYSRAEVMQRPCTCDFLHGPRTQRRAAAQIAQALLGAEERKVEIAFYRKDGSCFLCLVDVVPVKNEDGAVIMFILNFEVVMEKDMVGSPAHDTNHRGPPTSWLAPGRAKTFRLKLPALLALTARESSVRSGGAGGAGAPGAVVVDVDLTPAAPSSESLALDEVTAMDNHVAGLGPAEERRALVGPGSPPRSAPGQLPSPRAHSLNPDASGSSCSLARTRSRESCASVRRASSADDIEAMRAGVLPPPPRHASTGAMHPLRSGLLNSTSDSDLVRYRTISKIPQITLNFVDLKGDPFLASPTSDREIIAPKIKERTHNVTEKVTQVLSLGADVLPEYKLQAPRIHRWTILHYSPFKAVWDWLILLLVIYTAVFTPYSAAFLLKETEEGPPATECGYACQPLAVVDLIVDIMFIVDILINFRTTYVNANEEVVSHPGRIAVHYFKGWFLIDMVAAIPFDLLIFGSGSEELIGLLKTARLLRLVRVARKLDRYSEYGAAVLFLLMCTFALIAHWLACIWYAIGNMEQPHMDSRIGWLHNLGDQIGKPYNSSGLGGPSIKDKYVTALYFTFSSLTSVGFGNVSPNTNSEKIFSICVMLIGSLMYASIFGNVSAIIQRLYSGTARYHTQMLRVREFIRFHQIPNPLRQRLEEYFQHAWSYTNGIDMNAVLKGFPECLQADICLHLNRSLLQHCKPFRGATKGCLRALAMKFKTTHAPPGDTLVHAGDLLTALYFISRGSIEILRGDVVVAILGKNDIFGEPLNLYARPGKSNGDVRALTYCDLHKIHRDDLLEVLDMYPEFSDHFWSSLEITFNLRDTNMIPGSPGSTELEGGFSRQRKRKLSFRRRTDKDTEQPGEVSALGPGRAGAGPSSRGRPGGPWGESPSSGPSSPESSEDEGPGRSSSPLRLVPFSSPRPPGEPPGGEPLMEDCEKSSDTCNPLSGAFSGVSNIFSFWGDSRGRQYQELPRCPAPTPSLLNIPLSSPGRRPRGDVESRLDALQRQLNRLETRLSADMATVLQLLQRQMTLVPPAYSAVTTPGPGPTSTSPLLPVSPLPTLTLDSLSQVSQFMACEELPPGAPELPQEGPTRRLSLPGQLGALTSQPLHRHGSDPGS
Type: functional
Setup conditions: read-out: AC50
// values below are reported AC50

>  <Molecule>
C[C@H]1O[C@@H](O[C@H]2[C@@H](O)C[C@H](O[C@H]3[C@@H](O)C[C@H](O[C@H]4CC[C@@]5(C)[C@H](CC[C@@H]6[C@@H]5CC[C@]5(C)[C@@H](C7=CC(=O)OC7)CC[C@]65O)C4)O[C@@H]3C)O[C@@H]2C)C[C@H](O)[C@@H]1O [DIGITOXIN]

>  <AC50>
> 30 µM

$$$$
>  <Molecule>
C#C[C@]1(O)CC[C@H]2[C@@H]3CCC4=CC(=O)CCC4=C3C=C[C@@]21CC [GESTRINONE]

>  <AC50>
> 30 µM

$$$$
>  <Molecule>
Cc1ccc2c(-c3ccccc3)nc(=O)n(C(C)C)c2c1 [PROQUAZONE]

>  <AC50>
> 30 µM

$$$$
>  <Molecule>
C[C@@H]1CCC[C@H](C)N1NC(=O)c1ccc(Cl)c(S(N)(=O)=O)c1 [CLOPAMIDE]

>  <AC50>
> 30 µM

$$$$
>  <Molecule>
Cc1ccc([C@@H]2O[C@H](CO)[C@@H](O)[C@H](O)[C@H]2O)cc1Cc1ccc(-c2ccc(F)cc2)s1 [CANAGLIFLOZIN ANHYDROUS]

>  <AC50>
> 30 µM

$$$$
>  <Molecule>
[H]/N=C(/N)N[C@H]1[C@H](O)[C@@H](O)[C@H](O[C@@H]2O[C@@H](C)[C@](O)(C=O)[C@H]2O[C@@H]2O[C@@H](CO)[C@H](O)[C@@H](O)[C@@H]2NC)[C@@H](N/C(N)=N\[H])[C@@H]1O [STREPTOMYCIN]

>  <AC50>
> 30 µM

$$$$
>  <Molecule>
CO[C@H]1[C@@H](O)C[C@H](O[C@H]2[C@@H](O)C[C@H](O[C@H]3[C@@H](O)C[C@H](O[C@H]4CC[C@@]5(C)[C@H](CC[C@@H]6[C@@H]5C[C@@H](O)[C@]5(C)[C@@H](C7=CC(=O)OC7)CC[C@]65O)C4)O[C@@H]3C)O[C@@H]2C)O[C@@H]1C [METILDIGOXIN]

>  <AC50>
> 30 µM

$$$$
>  <Molecule>
Cc1cnc(NC(=O)C2=C(O)c3ccccc3S(=O)(=O)N2C)s1 [MELOXICAM]

>  <AC50>
> 30 µM

$$$$
>  <Molecule>
CCc1oc2ccccc2c1C(=O)c1cc(Br)c(O)c(Br)c1 [BENZBROMARONE]

>  <AC50>
> 30 µM

$$$$
>  <Molecule>
CCOc1ccc2ccccc2c1C(=O)N[C@@H]1C(=O)N2[C@@H]1SC(C)(C)[C@@H]2C(=O)O [NAFCILLIN]

>  <AC50>
> 30 µM

$$$$
>  <Molecule>
CCOC(=O)c1ccc(OC(=O)CCCCCNC(=N)N)cc1 [GABEXATE]

>  <AC50>
25 µM

$$$$
>  <Molecule>
Nc1nc(O)c2ncn(COC(CO)CO)c2n1 [GANCICLOVIR]

>  <AC50>
> 30 µM

$$$$
>  <Molecule>
CC[N+](C)(CC)CCOC(=O)C1c2ccccc2Oc2ccccc21 [METHANTHELINE]

>  <AC50>
11 µM

$$$$

* * *

Entries with reported AC50 on Motilin receptor (Homo sapiens, UniProt O43193)
Sequence (O43193 whole entry): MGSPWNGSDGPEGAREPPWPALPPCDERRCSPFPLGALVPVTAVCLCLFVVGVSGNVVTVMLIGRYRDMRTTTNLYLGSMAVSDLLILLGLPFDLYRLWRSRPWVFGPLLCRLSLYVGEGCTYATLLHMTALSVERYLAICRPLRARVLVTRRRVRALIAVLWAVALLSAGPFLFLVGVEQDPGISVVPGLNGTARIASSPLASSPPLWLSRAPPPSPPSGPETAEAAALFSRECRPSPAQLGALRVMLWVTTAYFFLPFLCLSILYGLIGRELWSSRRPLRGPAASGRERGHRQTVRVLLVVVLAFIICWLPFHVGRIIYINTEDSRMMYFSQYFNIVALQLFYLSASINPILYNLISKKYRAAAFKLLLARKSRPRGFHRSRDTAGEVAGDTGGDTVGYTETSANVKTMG
Value type: AC50

>  <Molecule>
CC[C@@H](CO)NC(=O)[C@@H]1C=C2c3cccc4[nH]cc(c34)C[C@H]2N(C)C1

>  <Tested on>
Motilin receptor (Homo sapiens, UniProt O43193); note: assay procedure not described here

>  <Measured result>
> 30 µM

$$$$
>  <Molecule>
Nc1nc2c(c(=O)[nH]1)N(C=O)C(CNc1ccc(C(=O)N[C@@H](CCC(=O)O)C(=O)O)cc1)CN2 (stereo partly specified)

>  <Tested on>
Motilin receptor (Homo sapiens, UniProt O43193); note: assay procedure not described here

>  <Measured result>
> 30 µM

$$$$
>  <Molecule>
O=C(Nc1c(Cl)cncc1Cl)c1ccc(OC(F)F)c(OCC2CC2)c1

>  <Tested on>
Motilin receptor (Homo sapiens, UniProt O43193); note: assay procedure not described here

>  <Measured result>
> 30 µM

$$$$
>  <Molecule>
CC(C)c1cc2c(cc1S(=O)(=O)O)[C@@]1(C)CCC[C@@](C)(C(=O)O)[C@@H]1CC2

>  <Tested on>
Motilin receptor (Homo sapiens, UniProt O43193); note: assay procedure not described here

>  <Measured result>
> 30 µM

$$$$
>  <Molecule>
Cc1ccc2c(-c3ccccc3)nc(=O)n(C(C)C)c2c1

>  <Tested on>
Motilin receptor (Homo sapiens, UniProt O43193); note: assay procedure not described here

>  <Measured result>
> 30 µM

$$$$
>  <Molecule>
CN1CCN(c2c(F)cc3c(=O)c(C(=O)O)cn4c3c2SCC4)CC1

>  <Tested on>
Motilin receptor (Homo sapiens, UniProt O43193); note: assay procedure not described here

>  <Measured result>
> 30 µM

$$$$
>  <Molecule>
CCOC(=O)NNc1ccc(N(CC)CC(C)O)nn1 (stereo unspecified)

>  <Tested on>
Motilin receptor (Homo sapiens, UniProt O43193); note: assay procedure not described here

>  <Measured result>
> 30 µM

$$$$
>  <Molecule>
C=C(C)[C@@H]1CCC(C)=C[C@H]1c1c(O)cc(CCCCC)cc1O

>  <Tested on>
Motilin receptor (Homo sapiens, UniProt O43193); note: assay procedure not described here

>  <Measured result>
20.5 µM

$$$$
>  <Molecule>
O=C(CCCN1CCC(n2c(O)nc3ccccc32)CC1)c1ccc(F)cc1

>  <Tested on>
Motilin receptor (Homo sapiens, UniProt O43193); note: assay procedure not described here

>  <Measured result>
26 µM

$$$$
>  <Molecule>
Cc1cccc(N(C)C(=S)Oc2ccc3ccccc3c2)c1 [TOLNAFTATE]

>  <Tested on>
Motilin receptor (Homo sapiens, UniProt O43193); note: assay procedure not described here

>  <Measured result>
> 10 µM

$$$$
>  <Molecule>
C[C@H]1C[C@H]2[C@@H]3CCC4=CC(=O)C=C[C@]4(C)[C@@]3(Cl)[C@@H](O)C[C@]2(C)[C@@]1(O)C(=O)CO

>  <Tested on>
Motilin receptor (Homo sapiens, UniProt O43193); note: assay procedure not described here

>  <Measured result>
> 10 µM

$$$$
>  <Molecule>
CC[N+]1(C)CCCC(OC(=O)C(O)(c2ccccc2)c2ccccc2)C1 (stereo unspecified) [PIPENZOLATE]

>  <Tested on>
Motilin receptor (Homo sapiens, UniProt O43193); note: assay procedure not described here

>  <Measured result>
> 30 µM

$$$$
>  <Molecule>
O=C1CN2Cc3c(ccc(Cl)c3Cl)N=C2N1 [ANAGRELIDE]

>  <Tested on>
Motilin receptor (Homo sapiens, UniProt O43193); note: assay procedure not described here

>  <Measured result>
> 10 µM

$$$$
>  <Molecule>
O=c1oc2ccccc2c(O)c1Cc1c(O)c2ccccc2oc1=O

>  <Tested on>
Motilin receptor (Homo sapiens, UniProt O43193); note: assay procedure not described here

>  <Measured result>
> 10 µM

$$$$
>  <Molecule>
COc1cccc(N(C)C(=S)Oc2ccc3c(c2)CCCC3)n1 [LIRANAFTATE]

>  <Tested on>
Motilin receptor (Homo sapiens, UniProt O43193); note: assay procedure not described here

>  <Measured result>
> 30 µM

$$$$
>  <Molecule>
Clc1ccc(C(Cn2ccnc2)OCc2ccc(Sc3ccccc3)cc2)c(Cl)c1 (stereo unspecified)

>  <Tested on>
Motilin receptor (Homo sapiens, UniProt O43193); note: assay procedure not described here

>  <Measured result>
23 µM

$$$$
>  <Molecule>
N=C(N)NCCCCCCC(=O)NC(O)C(=O)NCCCCNCCCN (stereo unspecified)

>  <Tested on>
Motilin receptor (Homo sapiens, UniProt O43193); note: assay procedure not described here

>  <Measured result>
> 30 µM

$$$$
>  <Molecule>
CC(=O)c1ccc2c(c1)N(CCCN1CCC(CCO)CC1)c1ccccc1S2

>  <Tested on>
Motilin receptor (Homo sapiens, UniProt O43193); note: assay procedure not described here

>  <Measured result>
> 30 µM

$$$$
>  <Molecule>
Clc1cccc(Cl)c1N=C1NCCN1

>  <Tested on>
Motilin receptor (Homo sapiens, UniProt O43193); note: assay procedure not described here

>  <Measured result>
> 10 µM

$$$$
>  <Molecule>
CS(=O)(=O)OCCCCOS(C)(=O)=O

>  <Tested on>
Motilin receptor (Homo sapiens, UniProt O43193); note: assay procedure not described here

>  <Measured result>
> 30 µM

$$$$
>  <Molecule>
CNCC[C@@H](Oc1ccccc1C)c1ccccc1

>  <Tested on>
Motilin receptor (Homo sapiens, UniProt O43193); note: assay procedure not described here

>  <Measured result>
> 30 µM

$$$$
>  <Molecule>
CCCN(CCc1cccs1)[C@H]1CCc2c(O)cccc2C1

>  <Tested on>
Motilin receptor (Homo sapiens, UniProt O43193); note: assay procedure not described here

>  <Measured result>
> 30 µM

$$$$
>  <Molecule>
O=C(O)c1ccccc1Nc1cccc(C(F)(F)F)c1

>  <Tested on>
Motilin receptor (Homo sapiens, UniProt O43193); note: assay procedure not described here

>  <Measured result>
> 10 µM

$$$$
>  <Molecule>
COc1cc(OC)c(C(=O)CCCN2CCCC2)c(OC)c1

>  <Tested on>
Motilin receptor (Homo sapiens, UniProt O43193); note: assay procedure not described here

>  <Measured result>
> 30 µM

$$$$
>  <Molecule>
C[C@@H]1CCC[C@H](C)N1NC(=O)c1ccc(Cl)c(S(N)(=O)=O)c1 [CLOPAMIDE]

>  <Tested on>
Motilin receptor (Homo sapiens, UniProt O43193); note: assay procedure not described here

>  <Measured result>
> 30 µM

$$$$
>  <Molecule>
CCOc1cc(CC(=O)N[C@@H](CC(C)C)c2ccccc2N2CCCCC2)ccc1C(=O)O [REPAGLINIDE]

>  <Tested on>
Motilin receptor (Homo sapiens, UniProt O43193); note: assay procedure not described here

>  <Measured result>
> 30 µM

$$$$
>  <Molecule>
C[C@]1(COc2ccc(N3CCC(Oc4ccc(OC(F)(F)F)cc4)CC3)cc2)Cn2cc([N+](=O)[O-])nc2O1

>  <Tested on>
Motilin receptor (Homo sapiens, UniProt O43193); note: assay procedure not described here

>  <Measured result>
> 10 µM

$$$$
>  <Molecule>
O=C(O)c1ccccc1OP(=O)(O)O

>  <Tested on>
Motilin receptor (Homo sapiens, UniProt O43193); note: assay procedure not described here

>  <Measured result>
> 30 µM

$$$$
>  <Molecule>
CNCCC=C1c2ccccc2CCc2ccccc21

>  <Tested on>
Motilin receptor (Homo sapiens, UniProt O43193); note: assay procedure not described here

>  <Measured result>
> 30 µM

$$$$
>  <Molecule>
CC(=O)S[C@@H]1CC2=CC(=O)CC[C@]2(C)[C@H]2CC[C@@]3(C)[C@@H](CC[C@@]34CCC(=O)O4)[C@H]12

>  <Tested on>
Motilin receptor (Homo sapiens, UniProt O43193); note: assay procedure not described here

>  <Measured result>
> 30 µM

$$$$
>  <Molecule>
CC(CCc1ccccc1)NC(C)C(O)c1ccc(O)cc1 (stereo unspecified)

>  <Tested on>
Motilin receptor (Homo sapiens, UniProt O43193); note: assay procedure not described here

>  <Measured result>
> 10 µM

$$$$
>  <Molecule>
CCCCC[C@H](O)/C=C/[C@H]1[C@H](O)CC(=O)[C@@H]1C/C=C\CCCC(=O)O

>  <Tested on>
Motilin receptor (Homo sapiens, UniProt O43193); note: assay procedure not described here

>  <Measured result>
> 30 µM

$$$$
>  <Molecule>
CCN(CC)C(=O)C1CN2CCc3cc(OC)c(OC)cc3C2CC1OC(C)=O (stereo unspecified) [BENZQUINAMIDE]

>  <Tested on>
Motilin receptor (Homo sapiens, UniProt O43193); note: assay procedure not described here

>  <Measured result>
> 30 µM

$$$$
>  <Molecule>
Cn1c(=O)c2[nH]cnc2n(C)c1=O

>  <Tested on>
Motilin receptor (Homo sapiens, UniProt O43193); note: assay procedure not described here

>  <Measured result>
> 10 µM

$$$$
>  <Molecule>
CC1(C)O[C@@H]2C[C@H]3[C@@H]4C[C@H](F)C5=CC(=O)C=C[C@]5(C)[C@H]4[C@@H](O)C[C@]3(C)[C@]2(C(=O)CO)O1 [FLUNISOLIDE]

>  <Tested on>
Motilin receptor (Homo sapiens, UniProt O43193); note: assay procedure not described here

>  <Measured result>
> 30 µM

$$$$
>  <Molecule>
CNCC[C@H](Oc1cccc2ccccc12)c1cccs1

>  <Tested on>
Motilin receptor (Homo sapiens, UniProt O43193); note: assay procedure not described here

>  <Measured result>
5.3 µM

$$$$
